Reference source for all entries: paper PMC4804314

Test name: Plasma pharmacokinetics in mouse after i.v. bolus
Type: in vivo, mouse (NMRI)
Assay conditions: mouse, in vivo, iv, 2.5 mg/kg, apparent Vdss, female mice, 2.5 mg/kg i.v.
Endpoint: Vd

Using the record for CC(C)[C@H]1C(=O)N[C@@H](CCCN=C(N)N)C(=O)NCC(=O)N[C@@H](CC(=O)O)C(=O)N[C@H](Cc2ccccc2)C(=O)N1C [cilengitide, cyclo‐(Asp‐D‐Phe‐N‐MeVal‐Arg‐Gly)] , report its Vd.
0.56 L/kg

---

Test name: Plasma pharmacokinetics in Cynomolgus monkey after i.v. bolus
Type: in vivo, Cynomolgus monkey (Macaca fascicularis)
Assay conditions: cynomolgus monkey, in vivo, iv, 2 mg/kg
Endpoint: half-life (h)
Numbers only; they are read as h.

Using the record for CC(C)[C@H]1C(=O)N[C@@H](CCCN=C(N)N)C(=O)NCC(=O)N[C@@H](CC(=O)O)C(=O)N[C@H](Cc2ccccc2)C(=O)N1C [cilengitide, cyclo‐(Asp‐D‐Phe‐N‐MeVal‐Arg‐Gly)] , report its half-life.
1.1

---

Test name: Plasma pharmacokinetics in mouse after i.v. bolus
Type: in vivo, mouse (NMRI)
Assay conditions: male, NMRI, mouse, plasma, iv, 2.5 mg/kg
Endpoint: level at 2 h (ng/mL)
Numbers only; they are read as ng/mL.

Using the record for CC(C)[C@H]1C(=O)N[C@@H](CCCN=C(N)N)C(=O)NCC(=O)N[C@@H](CC(=O)O)C(=O)N[C@H](Cc2ccccc2)C(=O)N1C [cilengitide, cyclo‐(Asp‐D‐Phe‐N‐MeVal‐Arg‐Gly)] , report its level at 2 h.
8

---

Test name: Metabolite profiling of mouse plasma, urine and feces by radio-HPLC
Type: in vivo, mouse (NMRI)
Assay conditions: male, NMRI, mouse, urine, iv, 2.5 mg/kg
Endpoint: dose excreted (%)
Numbers only; they are read as %.

Using the record for CC(C)[C@H]1C(=O)N[C@@H](CCCN=C(N)N)C(=O)NCC(=O)N[C@@H](CC(=O)O)C(=O)N[C@H](Cc2ccccc2)C(=O)N1C [cilengitide, cyclo‐(Asp‐D‐Phe‐N‐MeVal‐Arg‐Gly)] , report its dose excreted.
7

---

Test name: Plasma pharmacokinetics in mouse after i.v. bolus
Type: in vivo, mouse (NMRI)
Assay conditions: female, NMRI, mouse, plasma, iv, 2.5 mg/kg
Endpoint: level at 0.1 h (ng/mL)
Numbers only; they are read as ng/mL.

Using the record for CC(C)[C@H]1C(=O)N[C@@H](CCCN=C(N)N)C(=O)NCC(=O)N[C@@H](CC(=O)O)C(=O)N[C@H](Cc2ccccc2)C(=O)N1C [cilengitide, cyclo‐(Asp‐D‐Phe‐N‐MeVal‐Arg‐Gly)] , report its level at 0.1 h.
2490

---

Test name: Plasma pharmacokinetics in Cynomolgus monkey after i.v. bolus
Type: in vivo, Cynomolgus monkey (Macaca fascicularis)
Assay conditions: female, cynomolgus monkey, plasma, iv, 2 mg/kg
Endpoint: level at 0.1 h (ng/mL)
Numbers only; they are read as ng/mL.

Using the record for CC(C)[C@H]1C(=O)N[C@@H](CCCN=C(N)N)C(=O)NCC(=O)N[C@@H](CC(=O)O)C(=O)N[C@H](Cc2ccccc2)C(=O)N1C [cilengitide, cyclo‐(Asp‐D‐Phe‐N‐MeVal‐Arg‐Gly)] , report its level at 0.1 h.
7020

---

Test name: Plasma pharmacokinetics in Cynomolgus monkey after i.v. bolus
Type: in vivo, Cynomolgus monkey (Macaca fascicularis)
Assay conditions: cynomolgus monkey, in vivo, Plasma CL, monkey, value used for allometry
Endpoint: clearance (mL/min/kg)
Numbers only; they are read as mL/min/kg.

Using the record for CC(C)[C@H]1C(=O)N[C@@H](CCCN=C(N)N)C(=O)NCC(=O)N[C@@H](CC(=O)O)C(=O)N[C@H](Cc2ccccc2)C(=O)N1C [cilengitide, cyclo‐(Asp‐D‐Phe‐N‐MeVal‐Arg‐Gly)] , report its clearance.
4.83

---

Test name: Plasma pharmacokinetics in rat after i.v. bolus
Type: in vivo, Wistar rat
Assay conditions: in vivo
Endpoint: clearance (mL/min/kg)
Numbers only; they are read as mL/min/kg.

Using the record for CC(C)[C@H]1C(=O)N[C@@H](CCCN=C(N)N)C(=O)NCC(=O)N[C@@H](CC(=O)O)C(=O)N[C@H](Cc2ccccc2)C(=O)N1C [cilengitide, cyclo‐(Asp‐D‐Phe‐N‐MeVal‐Arg‐Gly)] , report its clearance.
16.3

---

Test name: Metabolite profiling of mouse plasma, urine and feces by radio-HPLC
Assay type: in vivo, mouse (NMRI)
Assay conditions: female, NMRI, mouse, urine, iv, 2.5 mg/kg
Endpoint: dose excreted (%)
Numbers only; they are read as %.

Using the record for CC(C)[C@H]1C(=O)N[C@@H](CCCN=C(N)N)C(=O)NCC(=O)N[C@@H](CC(=O)O)C(=O)N[C@H](Cc2ccccc2)C(=O)N1C [cilengitide, cyclo‐(Asp‐D‐Phe‐N‐MeVal‐Arg‐Gly)] , report its dose excreted.
28

---

Test name: Plasma pharmacokinetics in mouse after i.v. bolus
Assay type: in vivo, mouse (NMRI)
Assay conditions: mouse, in vivo, Vdss, range over both species (mouse and monkey)
Endpoint: Vd

Using the record for CC(C)[C@H]1C(=O)N[C@@H](CCCN=C(N)N)C(=O)NCC(=O)N[C@@H](CC(=O)O)C(=O)N[C@H](Cc2ccccc2)C(=O)N1C [cilengitide, cyclo‐(Asp‐D‐Phe‐N‐MeVal‐Arg‐Gly)] , report its Vd.
0.32 to 1.6 L/kg

---

Test name: Metabolite profiling of mouse plasma, urine and feces by radio-HPLC
Assay type: in vivo, mouse (NMRI)
Assay conditions: female, NMRI, mouse, feces, iv, 2.5 mg/kg
Endpoint: dose excreted

Using the record for CC(C)[C@H]1C(=O)N[C@@H](CCCN=C(N)N)C(=O)NCC(=O)N[C@@H](CC(=O)O)C(=O)N[C@H](Cc2ccccc2)C(=O)N1C [cilengitide, cyclo‐(Asp‐D‐Phe‐N‐MeVal‐Arg‐Gly)] , report its dose excreted.
66%

---

Test name: Plasma pharmacokinetics in mouse after i.v. bolus
Format: in vivo, mouse (NMRI)
Assay conditions: male, NMRI, mouse, plasma, iv, 2.5 mg/kg
Endpoint: level at 0.25 h (ng/mL)
Numbers only; they are read as ng/mL.

Using the record for CC(C)[C@H]1C(=O)N[C@@H](CCCN=C(N)N)C(=O)NCC(=O)N[C@@H](CC(=O)O)C(=O)N[C@H](Cc2ccccc2)C(=O)N1C [cilengitide, cyclo‐(Asp‐D‐Phe‐N‐MeVal‐Arg‐Gly)] , report its level at 0.25 h.
439

---

Test name: Plasma pharmacokinetics in mouse after i.v. bolus
Assay type: in vivo, mouse (NMRI)
Assay conditions: mouse, in vivo, Plasma CL, value used for allometry
Endpoint: clearance (mL/min/kg)
Numbers only; they are read as mL/min/kg.

Using the record for CC(C)[C@H]1C(=O)N[C@@H](CCCN=C(N)N)C(=O)NCC(=O)N[C@@H](CC(=O)O)C(=O)N[C@H](Cc2ccccc2)C(=O)N1C [cilengitide, cyclo‐(Asp‐D‐Phe‐N‐MeVal‐Arg‐Gly)] , report its clearance.
63.5

---

Test name: Plasma pharmacokinetics in mouse after i.v. bolus
Format: in vivo, mouse (NMRI)
Assay conditions: mouse, in vivo, iv, 2.5 mg/kg, apparent Vdss, male mice, 2.5 mg/kg i.v.
Endpoint: Vd (L/kg)
Numbers only; they are read as L/kg.

Using the record for CC(C)[C@H]1C(=O)N[C@@H](CCCN=C(N)N)C(=O)NCC(=O)N[C@@H](CC(=O)O)C(=O)N[C@H](Cc2ccccc2)C(=O)N1C [cilengitide, cyclo‐(Asp‐D‐Phe‐N‐MeVal‐Arg‐Gly)] , report its Vd.
1.6

---

Test name: Plasma pharmacokinetics in Cynomolgus monkey after i.v. bolus
Assay type: in vivo, Cynomolgus monkey (Macaca fascicularis)
Assay conditions: cynomolgus monkey, in vivo, iv, 2 mg/kg
Endpoint: AUC (ng·h/mL)
Numbers only; they are read as ng·h/mL.

Using the record for CC(C)[C@H]1C(=O)N[C@@H](CCCN=C(N)N)C(=O)NCC(=O)N[C@@H](CC(=O)O)C(=O)N[C@H](Cc2ccccc2)C(=O)N1C [cilengitide, cyclo‐(Asp‐D‐Phe‐N‐MeVal‐Arg‐Gly)] , report its AUC.
6460

---

Test name: Plasma pharmacokinetics in Cynomolgus monkey after i.v. bolus
Format: in vivo, Cynomolgus monkey (Macaca fascicularis)
Assay conditions: female, cynomolgus monkey, plasma, iv, 2 mg/kg
Endpoint: level at 8 h (ng/mL)
Numbers only; they are read as ng/mL.

Using the record for CC(C)[C@H]1C(=O)N[C@@H](CCCN=C(N)N)C(=O)NCC(=O)N[C@@H](CC(=O)O)C(=O)N[C@H](Cc2ccccc2)C(=O)N1C [cilengitide, cyclo‐(Asp‐D‐Phe‐N‐MeVal‐Arg‐Gly)] , report its level at 8 h.
24.6

---

Test name: Plasma pharmacokinetics in rabbit after i.v. infusion
Format: in vivo, Chinchilla rabbit
Assay conditions: Chinchilla, rabbit, plasma, iv, 50 mg/kg
Endpoint: level at 4 h

Using the record for CC(C)[C@H]1C(=O)N[C@@H](CCCN=C(N)N)C(=O)NCC(=O)N[C@@H](CC(=O)O)C(=O)N[C@H](Cc2ccccc2)C(=O)N1C [cilengitide, cyclo‐(Asp‐D‐Phe‐N‐MeVal‐Arg‐Gly)] , report its level at 4 h.
34200 to 38500 ng/mL
